- Tested on: endogenous target monocytes in human PBMC
- ASSAY REMARKS: PBMC ex vivo monocyte depletion flow cytometry assay (Example 200)
- Format: cell-based
- ASSAY CONDITIONS: with anti-cotinine antibody (SEQ ID NO: 11/12), 18-24 hours, EC50 in molar, read-out: Ex Vivo Depletion Assay pEC50 (converted)
Below, each entry is listed with its recorded EC50.
The figure you give is taken to be in nM; do not add the unit.

COMPOUND	REPORTED ENDPOINT	TEST VALUE
CC(C)N(C)[C@@H]1CC[C@H](N2CC[C@H](Nc3ncnc4ccc(C(F)(F)F)cc34)C2=O)[C@H](NC(=O)CCCCCCCCNCCCCCCCCCCNC(=O)[C@H]2CC(=O)N(C)[C@@H]2c2cccnc2)C1	EC50	0.2

**Q:** Find the measured EC50 of CC(C)N(C)[C@@H]1CC[C@H](N2CC[C@H](Nc3ncnc4ccc(C(F)(F)F)cc34)C2=O)[C@H](NC(=O)c2cnn(C3CCN(CCOCCOCCNC(=O)[C@H]4CC(=O)N(C)[C@@H]4c4cccnc4)CC3)c2)C1 with endogenous target monocytes in human PBMC as test system.
**A:** 25.1

**Q:** Find the measured EC50 of CC(C)N(C)[C@@H]1CC[C@H](N2CC[C@H](Nc3ncnc4ccc(C(F)(F)F)cc34)C2=O)[C@H](NC(=O)[C@H]2CC[C@@H](N3CCC(C(=O)NCCOCCOCCNC(=O)[C@H]4CC(=O)N(C)[C@@H]4c4cccnc4)CC3)CC2)C1 with endogenous target monocytes in human PBMC as test system.
**A:** 0.126

**Q:** Find the measured EC50 of CC(C)N(C)[C@@H]1CC[C@H](N2CC[C@H](Nc3ncnc4ccc(C(F)(F)F)cc34)C2=O)[C@H](NC(=O)[C@H]2CC[C@@H](N3CCC(C(=O)NCCOCCOCCNC(=O)[C@H]4CC(=O)N(C)[C@@H]4c4cccnc4)C(F)(F)C3)CC2)C1 (stereo partly shown) with endogenous target monocytes in human PBMC as test system.
**A:** 0.631

The reported numbers originate from patent US12521393B2.
